assayed target: UniProt P15917
Sequence (whole entry): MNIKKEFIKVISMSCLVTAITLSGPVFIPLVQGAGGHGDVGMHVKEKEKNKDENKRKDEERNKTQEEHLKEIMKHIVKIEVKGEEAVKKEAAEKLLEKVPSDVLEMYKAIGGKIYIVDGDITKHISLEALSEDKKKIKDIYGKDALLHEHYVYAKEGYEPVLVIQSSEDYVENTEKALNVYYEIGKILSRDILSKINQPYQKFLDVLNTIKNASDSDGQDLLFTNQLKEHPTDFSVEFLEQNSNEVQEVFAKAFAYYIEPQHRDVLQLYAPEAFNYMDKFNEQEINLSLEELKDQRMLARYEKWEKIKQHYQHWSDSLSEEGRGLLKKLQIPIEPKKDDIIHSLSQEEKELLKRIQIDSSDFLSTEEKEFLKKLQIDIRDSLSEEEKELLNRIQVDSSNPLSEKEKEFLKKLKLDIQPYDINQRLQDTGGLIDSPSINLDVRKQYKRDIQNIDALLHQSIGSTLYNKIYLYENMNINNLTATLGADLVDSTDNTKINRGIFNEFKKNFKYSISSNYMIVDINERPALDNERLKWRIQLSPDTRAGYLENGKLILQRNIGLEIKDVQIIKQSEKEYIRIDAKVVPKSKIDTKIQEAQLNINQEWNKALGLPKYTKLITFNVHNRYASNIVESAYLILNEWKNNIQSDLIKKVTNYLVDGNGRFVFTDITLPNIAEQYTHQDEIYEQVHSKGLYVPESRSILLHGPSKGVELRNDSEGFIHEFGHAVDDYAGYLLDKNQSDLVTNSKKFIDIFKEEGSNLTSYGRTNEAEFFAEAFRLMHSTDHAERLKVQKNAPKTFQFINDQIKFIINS
test: Inhibition of Bacillus anthracis lethal factor using protease substrate-2 assessed as release of p-nitroaniline at 10 uM measured for 10 mins by spectrophotometric assay

{"record smiles": "O=C(N[C@H]1C[C@H](C(=O)NO)N(S(=O)(=O)c2ccc(Cl)c(Cl)c2)C1)c1cccs1", "inhibition, %": 46}
{"record smiles": "O=C(N[C@@H]1C[C@H](C(=O)NO)N(S(=O)(=O)c2ccc(Cl)c(Cl)c2)C1)c1cccs1", "inhibition, %": 27}
{"record smiles": "O=C(/C=C/c1ccco1)N[C@H]1C[C@H](C(=O)NO)N(S(=O)(=O)c2ccc(Cl)c(Cl)c2)C1", "inhibition, %": 22}
{"record smiles": "COc1ccc(C(=O)N[C@@H]2C[C@H](C(=O)NO)N(S(=O)(=O)c3ccc(Cl)c(Cl)c3)C2)c(OC)c1", "inhibition, %": 65}
{"record smiles": "O=C(NO)[C@H]1C[C@@H](OCc2ccccc2)CN1S(=O)(=O)c1ccc(Cl)c(Cl)c1", "inhibition, %": 50}
{"record smiles": "O=C(NO)[C@H]1C[C@H](OCc2ccccc2)CN1S(=O)(=O)c1ccc(Cl)c(Cl)c1", "inhibition, %": 16}
{"record smiles": "O=C(NO)[C@H]1C[C@@H](n2cc(-c3ccccc3)nn2)CN1S(=O)(=O)c1ccc(Cl)c(Cl)c1", "inhibition, %": 8}
{"record smiles": "COc1ccc(C(=O)N[C@H]2C[C@H](C(=O)NO)N(S(=O)(=O)c3ccc(Cl)c(Cl)c3)C2)c(OC)c1", "inhibition, %": 11}

---

assayed target: Lethal factor (Bacillus anthracis, UniProt P15917)
Sequence (P15917 whole entry): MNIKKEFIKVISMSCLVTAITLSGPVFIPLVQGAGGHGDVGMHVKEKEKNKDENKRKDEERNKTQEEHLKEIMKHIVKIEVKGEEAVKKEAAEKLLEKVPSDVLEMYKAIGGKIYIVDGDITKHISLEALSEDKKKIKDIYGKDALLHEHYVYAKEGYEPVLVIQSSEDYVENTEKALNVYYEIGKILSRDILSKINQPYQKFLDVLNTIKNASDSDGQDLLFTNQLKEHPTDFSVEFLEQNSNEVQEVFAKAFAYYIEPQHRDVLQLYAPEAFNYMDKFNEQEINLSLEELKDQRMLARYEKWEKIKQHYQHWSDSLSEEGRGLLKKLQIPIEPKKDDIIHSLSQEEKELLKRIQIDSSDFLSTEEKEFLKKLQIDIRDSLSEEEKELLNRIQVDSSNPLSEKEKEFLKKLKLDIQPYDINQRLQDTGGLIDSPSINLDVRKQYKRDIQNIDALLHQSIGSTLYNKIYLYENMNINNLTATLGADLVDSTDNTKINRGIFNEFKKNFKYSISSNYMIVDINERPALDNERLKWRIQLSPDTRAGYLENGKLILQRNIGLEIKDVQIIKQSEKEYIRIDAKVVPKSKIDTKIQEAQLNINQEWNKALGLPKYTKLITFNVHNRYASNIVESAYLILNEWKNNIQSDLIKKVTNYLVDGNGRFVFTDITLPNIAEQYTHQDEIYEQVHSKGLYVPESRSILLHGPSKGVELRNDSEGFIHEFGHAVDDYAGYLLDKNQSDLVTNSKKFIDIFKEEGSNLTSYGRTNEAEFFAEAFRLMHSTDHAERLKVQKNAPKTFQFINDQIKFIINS
pIC50: −log10 of the molar value.
The following molecules are shown together with reported pIC50 values.

{"record smiles": "CCCCCCO[C@H]1CCN(S(=O)(=O)c2ccc(Cl)cc2)[C@H]1C(=O)NO", "assayed target": "Lethal factor (Bacillus anthracis, UniProt P15917)", "relational operator": "<", "pIC50": 5.00}
{"record smiles": "COc1ccc(C(=O)N[C@@H]2C[C@H](C(=O)NO)N(S(=O)(=O)c3ccc(Cl)c(Cl)c3)C2)c(OC)c1", "assayed target": "Lethal factor (Bacillus anthracis, UniProt P15917)", "relational operator": "=", "pIC50": 5.68}
{"record smiles": "O=C(NO)[C@H]1C[C@@H](OCc2ccccc2)CN1S(=O)(=O)c1ccc(Cl)c(Cl)c1", "assayed target": "Lethal factor (Bacillus anthracis, UniProt P15917)", "relational operator": "=", "pIC50": 5.02}
{"record smiles": "O=C(NO)[C@H]1[C@@H](OCc2ccccc2)CCN1S(=O)(=O)c1ccc(Cl)cc1", "assayed target": "Lethal factor (Bacillus anthracis, UniProt P15917)", "relational operator": "=", "pIC50": 5.77}
{"record smiles": "O=C(NO)[C@H]1[C@@H](OCc2ccccc2)CCN1S(=O)(=O)c1ccc(Cl)c(Cl)c1", "assayed target": "Lethal factor (Bacillus anthracis, UniProt P15917)", "relational operator": "=", "pIC50": 5.85}

Just for reference, ChEMBL document CHEMBL2086233 is where these values come from.
